Record form. Attribute: Avg_Inh (%) @ 50uM. Fill in for each entry.
target: human IDO1 protein (Homo sapiens, UniProt P14902); construct: purchased ChemPartner Lot; No. 20160706; assay: Enzymatic IDO1 assay (Absorbance 321 assay); type: biochemical; settings: 50 uM, average inhibition, Table S2
Sequence (P14902 whole entry): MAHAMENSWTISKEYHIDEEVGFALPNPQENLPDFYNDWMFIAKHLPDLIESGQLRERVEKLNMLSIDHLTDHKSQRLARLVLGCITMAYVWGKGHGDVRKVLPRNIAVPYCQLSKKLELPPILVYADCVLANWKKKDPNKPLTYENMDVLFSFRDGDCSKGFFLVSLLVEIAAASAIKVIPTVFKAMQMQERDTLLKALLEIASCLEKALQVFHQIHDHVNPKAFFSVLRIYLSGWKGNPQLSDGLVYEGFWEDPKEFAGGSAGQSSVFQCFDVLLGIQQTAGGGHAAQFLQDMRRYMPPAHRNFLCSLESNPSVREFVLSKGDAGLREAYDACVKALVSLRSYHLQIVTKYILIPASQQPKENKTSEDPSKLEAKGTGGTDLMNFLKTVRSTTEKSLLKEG
Answer format reminder: number followed by unit.

Recorded Avg_Inh (%) @ 50uM, per entry:
Cc1c(-c2ccccc2)nc(-c2ccccc2)[nH]c1=O [DCI-045] :: 11.41%
O=c1cnc2ccccc2n1Cc1cccc(Cl)c1 [DCI-010] :: 18.26%
Cc1cccc(C)c1N1CC(C(=O)Nc2cccc3ccccc23)CC1=O (stereo not shown) [DCI-020] :: 10.24%
N#CCn1nc(-c2ccc(Cl)cc2)c2c1-c1ccccc1C2 [DCI-077] :: 51.64%
O=C(COC(=O)c1ccc2ccccc2n1)c1ccc(Cl)cc1 [DC-I046] :: 63.18%
CCn1c(SCC(=O)Nc2ccccc2[N+](=O)[O-])nnc1-c1ccc(O)cc1 [DCI-068] :: 5.69%

With those in mind, consider the next compound.
[Q] // returns reported Avg_Inh (%) @ 50uM for input CN(CCCNc1cc(=O)oc2ccccc12)C(=O)c1ccc(F)cc1 [DCI-035]
[A] 2.22%

This collection of values is drawn from paper PMC5884943.
